measurement_target: Ghrelin receptor (Homo sapiens)
Sequence (Q92847 whole entry): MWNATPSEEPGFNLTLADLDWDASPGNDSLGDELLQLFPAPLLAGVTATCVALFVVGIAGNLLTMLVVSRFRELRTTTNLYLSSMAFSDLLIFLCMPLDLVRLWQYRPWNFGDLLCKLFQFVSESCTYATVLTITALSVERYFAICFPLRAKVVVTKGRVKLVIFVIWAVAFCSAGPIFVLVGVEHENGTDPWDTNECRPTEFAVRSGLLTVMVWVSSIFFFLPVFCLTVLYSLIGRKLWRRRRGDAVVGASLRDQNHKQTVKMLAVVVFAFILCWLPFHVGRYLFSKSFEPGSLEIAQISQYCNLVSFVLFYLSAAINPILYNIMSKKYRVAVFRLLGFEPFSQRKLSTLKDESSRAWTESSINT
measurement_description: Receptor Selection and Amplification Technology (R-SAT) assay
Assay type: cell-based
Set-up: expressed in transfected cells; host or cells: NIH3T3
study_conditions: percent inhibition at saturating ligand, normalized to reference ligand Substance P analog = 100%
Provide the reported RSAT Eff(%) of each item.
Be sure to follow the number with its unit.

1. CC(=O)c1cn(CCCN2CCC(Oc3ccccc3Cl)CC2)c2ccccc12 [drawing 599]	116%
2. COc1cccc2c(C(C)=O)cn(CCCN3CCC(Oc4ccc(F)cc4)CC3)c12 [drawing 241]	104%
3. COc1cccc2c(C(=O)NCc3cccc(C)c3)cn(CCCN3C4CCC3CC(Oc3ccc(F)cc3)C4)c12 (centres unmarked)	112%

Consider the following items and state reported RSAT Eff(%) for each.
1. COc1cccc2c(C(=O)NCc3cccc(Cl)c3)cn(CCCN3C4CCC3CC(Oc3ccccc3Cl)C4)c12 (centres unmarked)
2. CC(=O)c1cn(CCCN2C3CCC2CC(CCc2ccccc2)C3)c2ccccc12 (centres unmarked) [drawing 433]
3. CC(=O)c1cn(CCCN2CCC(Oc3ccc(F)cc3)CC2)c2ccccc12.O=C(O)C(=O)O [drawing 520]
4. COc1cccc2c(C(=O)NCc3cccc(Cl)c3)cn(CCCN3C4CCC3CC(Oc3ccc(Cl)cc3)C4)c12 (centres unmarked)
5. COc1cccc2c(C(C)=O)cn(CCCN3CCCN(Cc4ccccc4Cl)CC3)c12
6. CCCCC[C@H]1C[C@H]2CC[C@@H](C1)N2CCCn1cc(C(C)=O)c2cccc(OC)c21

Found:
1: 99%; 2: 96%; 3: 128%; 4: 97%; 5: 128%; 6: 113%

# map each compound to its RSAT Eff(%)
1. COc1cccc2c(C(=O)NCC(C)C)cn(CCCN3CCN(CCOc4ccc(Cl)cc4)CC3)c12
2. COc1cccc2c(C(=O)NCC(C)C)cn(CCCN3C4CCC3CC(Oc3ccc(F)cc3)C4)c12 (centres unmarked)
3. COc1cccc2c(C(C)=O)cn(CCCN3CCCN(Cc4ccc(F)cc4)CC3)c12
4. CC(=O)c1cn(CCCN2CCC(Oc3ccc(F)cc3)CC2)c2ccccc12 [drawing 551]
5. COc1cccc2c(C(C)=O)cn(CCCN3CCC(C(=O)c4ccccc4)CC3)c12
6. COc1cccc2c(C(=O)NCc3cccc(C)c3)cn(CCCN3C4CCC3CC(Oc3ccccc3Cl)C4)c12 (centres unmarked)
7. COc1ccccc1C1CCN(CCCn2cc(C(C)=O)c3ccccc32)CC1 [drawing 576]

Found:
1. 84%
2. 147%
3. 130%
4. 96%
5. 98%
6. 121%
7. 106%

Lookup: Quote RSAT Eff(%) reported for COc1cccc2c(C(=O)NCC(C)C)cn(CCCN3C4CCC3CC(Oc3ccccc3Cl)C4)c12 (centres unmarked) please.
Found: 116%
